Please go through the items and note down their Radioactivity Alpha Globin (α) mRNA.
Test system: K562 cells
Method Summary: Treatment of K562 cells and analysis of globin mRNA by primer extension
Type: cell-based, human
Cond: K562 cells, 1 mM, phosphorimager
Give the figure only, with no unit attached.

Please report the measured Radioactivity Alpha Globin (α) mRNA for O=C(O)COc1ccccc1 [PAA, phenoxyacetic acid] tested on K562 cells.
507148

Please report the measured Radioactivity Alpha Globin (α) mRNA for COc1ccccc1C=CC(=O)O [ST 32, 2-methoxycinnamic acid] tested on K562 cells.
36751

Please report the measured Radioactivity Alpha Globin (α) mRNA for COc1ccc(CCC(=O)O)cc1OC [ST 38, 3-3,4-dimethoxy phenyl propionic acid] tested on K562 cells.
191985

Please report the measured Radioactivity Alpha Globin (α) mRNA for Cc1ccccc1CCC(=O)O [ST 33, 2 methyl hydrocinnamic acid] tested on K562 cells.
89473

Please report the measured Radioactivity Alpha Globin (α) mRNA for COc1ccc(CC(=O)O)cc1OC [ST 37, 3,4 dimethoxy phenyl acetic acid] tested on K562 cells.
106875

Please report the measured Radioactivity Alpha Globin (α) mRNA for COc1ccc(OC)c(CC(=O)O)c1 [ST 40, 2,5 {dimethoxy phenyl} acetic acid] tested on K562 cells.
85941

Please report the measured Radioactivity Alpha Globin (α) mRNA for COc1ccccc1/C=C\C(=O)O [ST 34, cis-2-methoxycinnamic acid] tested on K562 cells.
105452

Please report the measured Radioactivity Alpha Globin (α) mRNA for CC(Cc1ccccc1)C(=O)O (stereo not drawn) [ST 7, α-methylhydrocinnamic acid] tested on K562 cells.
92979

Please report the measured Radioactivity Alpha Globin (α) mRNA for CCC(C)(C)C(=O)O [ST 20, 2,2 dimethylbutyric acid] tested on K562 cells.
178751

====

Tested on: K562 cells
Method Summary: Treatment of K562 cells and analysis of globin mRNA by primer extension
Format: cell-based, human
Cond: ratio of globin mRNA radioactivity, K562 cells, 1 mM
Observation Type: γ/α

Please report γ/α for the following molecule: COc1ccc(CC(=O)O)cc1OC
11.3

Please report γ/α for the following molecule: COc1ccc(OC)c(CC(=O)O)c1
14.4

Please report γ/α for the following molecule: O=C(O)COc1ccccc1
5.4

Please report γ/α for the following molecule: COc1ccccc1C=CC(=O)O
26.0

Please report γ/α for the following molecule: CCC(C)(C)C(=O)O
9.5

Please report γ/α for the following molecule: Cc1ccccc1CCC(=O)O [ST 33, 2 methyl hydrocinnamic acid]
15.5

Please report γ/α for the following molecule: COc1ccccc1/C=C\C(=O)O [ST 34, cis-2-methoxycinnamic acid]
21.4

Please report γ/α for the following molecule: CC(Cc1ccccc1)C(=O)O (stereo not drawn) [ST 7, α-methylhydrocinnamic acid]
17.7

Please report γ/α for the following molecule: COc1ccc(CCC(=O)O)cc1OC
9.7

====

System: K562 cells
Method Summary: Treatment of K562 cells and analysis of globin mRNA by primer extension
Format: cell-based, human
Cond: K562 cells, 1 mM, phosphorimager
Please go through the items and note down their Radioactivity Fetal Globin (γ) mRNA.
Give the figure only, with no unit attached.

Please report Radioactivity Fetal Globin (γ) mRNA for the following compound: COc1ccc(CCC(=O)O)cc1OC
1858358

Please report Radioactivity Fetal Globin (γ) mRNA for the following compound: COc1ccccc1/C=C\C(=O)O [ST 34, cis-2-methoxycinnamic acid]
2255627

Please report Radioactivity Fetal Globin (γ) mRNA for the following compound: COc1ccc(OC)c(CC(=O)O)c1
1240100

Please report Radioactivity Fetal Globin (γ) mRNA for the following compound: CC(Cc1ccccc1)C(=O)O (stereo not drawn) [ST 7, α-methylhydrocinnamic acid]
1648056

Please report Radioactivity Fetal Globin (γ) mRNA for the following compound: O=C(O)COc1ccccc1
2755891

Please report Radioactivity Fetal Globin (γ) mRNA for the following compound: COc1ccc(CC(=O)O)cc1OC
1206529

Please report Radioactivity Fetal Globin (γ) mRNA for the following compound: COc1ccccc1C=CC(=O)O
957146

Please report Radioactivity Fetal Globin (γ) mRNA for the following compound: CCC(C)(C)C(=O)O
1697936

Please report Radioactivity Fetal Globin (γ) mRNA for the following compound: Cc1ccccc1CCC(=O)O [ST 33, 2 methyl hydrocinnamic acid]
1388899

====

Method Summary: Pharmacokinetic studies after single oral doses in baboons
Cond: monkey, plasma
Observation Type: half-life (h)
Report the figure in h without appending any unit label.

Please report half-life for the following compound: CCC(C)(C)C(=O)O [ST 20, 2,2 dimethylbutyric acid]
6.8
